Molecular target: T1, recombinant BACE1 (BACE1 extracellular domain, R&D Systems Cat#931-AS) (UniProt P56817 22-457)
T1 construct: extracellular domain; also called BACE1 extracellular domain protein
T1 sequence (P56817 22-457): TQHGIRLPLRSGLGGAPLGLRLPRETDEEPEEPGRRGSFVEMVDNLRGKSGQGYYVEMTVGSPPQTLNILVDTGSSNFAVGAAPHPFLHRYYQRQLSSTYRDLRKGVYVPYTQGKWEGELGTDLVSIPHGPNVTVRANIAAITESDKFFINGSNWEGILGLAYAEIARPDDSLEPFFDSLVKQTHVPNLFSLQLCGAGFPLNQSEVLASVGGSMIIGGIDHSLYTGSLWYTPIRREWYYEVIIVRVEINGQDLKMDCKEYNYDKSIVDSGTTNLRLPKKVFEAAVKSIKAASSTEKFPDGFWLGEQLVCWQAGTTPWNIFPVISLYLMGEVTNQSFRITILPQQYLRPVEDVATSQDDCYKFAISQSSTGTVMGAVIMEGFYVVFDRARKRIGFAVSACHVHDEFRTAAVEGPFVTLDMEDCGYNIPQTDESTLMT
Test: SPR Biacore 8K, antibody captured, BACE1 analyte
metric: pKd
In plain terms, pKd is the concentration in mol/L turned into minus its base-10 logarithm.

Sample records with pKd:
| binder | observedMeasurement |
| --- | --- |
| hu2H8v29.5 (antibody, V domains shown, captured via human Fc; also called hu2H8_HC6 + hu2H8_LC5.5) VH: QVQLVQSGAEVKKPGASVKVSCKASGYTFTNFWIHWVRQAPGQGLEWMGMIDPSDSYTKYNQKFKARATLTVDTSTSTVYMELSSLRSEDTAVYYCARSGVAFPYWGQGTLVTVSS VL: DIQMTQSPSSLSASVGDRVTITCKASQDVGRNVAWYQQKPGKSPKSLIYSASHKYSGVPSRFSGSGSGTDFTLTISSLQPEDFATYFCQQYNSYPYTFGQGTKVEIK | 8.09 |
| hu2H8v29.1 (antibody, V domains shown, captured via human Fc; also called hu2H8_HC6 + hu2H8_LC5.1) VH: QVQLVQSGAEVKKPGASVKVSCKASGYTFTNFWIHWVRQAPGQGLEWMGMIDPSDSYTKYNQKFKARATLTVDTSTSTVYMELSSLRSEDTAVYYCARSGVAFPYWGQGTLVTVSS VL: DIQMTQSPSSLSASVGDRVTITCKASQDVGRNVAWYQQKPGKSPKSLIYSASHYYSGVPSRFSGSGSGTDFTLTISSLQPEDFATYFCQQYNSYPYTFGQGTKVEIK | 8.14 |
| hu2H8v29.6 (antibody, V domains shown, captured via human Fc; also called hu2H8_HC6 + hu2H8_LC5.6) VH: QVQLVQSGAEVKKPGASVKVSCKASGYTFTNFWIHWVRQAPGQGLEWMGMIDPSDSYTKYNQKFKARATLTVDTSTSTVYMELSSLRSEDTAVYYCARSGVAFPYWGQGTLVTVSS VL: DIQMTQSPSSLSASVGDRVTITCKASQDVGRNVAWYQQKPGKSPKSLIYSASHLYSGVPSRFSGSGSGTDFTLTISSLQPEDFATYFCQQYNSYPYTFGQGTKVEIK | 8.12 |
| hu2H8v29.2 (antibody, V domains shown, captured via human Fc; also called hu2H8_HC6 + hu2H8_LC5.2) VH: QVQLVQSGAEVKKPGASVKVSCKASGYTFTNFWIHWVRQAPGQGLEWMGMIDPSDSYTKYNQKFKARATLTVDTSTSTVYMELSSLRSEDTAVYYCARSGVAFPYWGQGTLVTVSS VL: DIQMTQSPSSLSASVGDRVTITCKASQDVGRNVAWYQQKPGKSPKSLIYSASHNYSGVPSRFSGSGSGTDFTLTISSLQPEDFATYFCQQYNSYPYTFGQGTKVEIK | 8.09 |

For hu2H8v29.11 (antibody, V domains shown, captured via human Fc; also called hu2H8_HC6 + hu2H8_LC5.11) VH: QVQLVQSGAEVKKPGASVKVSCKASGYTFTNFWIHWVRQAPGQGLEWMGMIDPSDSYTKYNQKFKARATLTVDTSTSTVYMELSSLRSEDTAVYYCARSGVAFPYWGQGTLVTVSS VL: DIQMTQSPSSLSASVGDRVTITCKASQDVGRNVAWYQQKPGKSPKSLIYSASHRYSGVPSRFSGSGSGTDFTLTISSLQPEDFATYFCQQYYSYAYTFGQGTKVEIK , what is its reported pKd? 8.32
